{"molecule": "Clc1cccc(-c2nc3c(c(N4CCCC4)n2)CCC3)c1", "result_units": "°C", "melting point": 150}
{"molecule": "COc1ccc(-c2nc3c(c(N(CCO)CCO)n2)CCC3)cc1OC", "result_units": "°C", "melting point": 115}
{"molecule": "COCCCNc1nc(-c2ccc(OC)c(OC)c2)nc2c1CCC2", "result_units": "°C", "melting point": 107}
{"molecule": "COc1ccc(-c2nc3c(c(NCCc4ccccc4Cl)n2)CCC3)cc1", "result_units": "°C", "melting point": 145}
{"molecule": "N#Cc1ccc(-c2nc3c(c(NCc4cccnc4)n2)CCC3)cc1", "result_units": "°C", "melting point": 219}
{"molecule": "OCCCCNc1nc(-c2cc(Cl)cc(Cl)c2)nc2c1CCC2", "result_units": "°C", "melting point": 142}
{"molecule": "Clc1cc(Cl)cc(-c2nc3c(c(NC4CCCC4)n2)CCC3)c1", "result_units": "°C", "melting point": 153}
{"molecule": "CCCCNc1nc(-c2ccc(OC)c(OC)c2)nc2c1CCC2", "result_units": "°C", "melting point": 115}
{"molecule": "CC1(C)CC(Nc2nc(-c3cccc(Cl)c3)nc3c2CCC3)CC(C)(C)N1", "result_units": "°C", "melting point": 182}
{"molecule": "Cc1ccc(-c2nc3c(c(NC4CCCC4)n2)CCC3)cc1", "result_units": "°C", "melting point": 183}
{"molecule": "Clc1ccc(-c2nc3c(c(N4CCSCC4)n2)CCC3)cc1", "result_units": "°C", "melting point": 159}
{"molecule": "N#Cc1ccc(-c2nc3c(c(N4CCCCC4)n2)CCC3)cc1", "result_units": "°C", "melting point": 152}
{"molecule": "CCCN(CCC)c1nc(-c2ccc(OC)c(OC)c2)nc2c1CCC2", "result_units": "°C", "melting point": 107}
{"molecule": "COc1ccc(-c2nc3c(c(N4CC(C)OC(C)C4)n2)CCC3)cc1OC (stereo not drawn)", "result_units": "°C", "melting point": 142}
{"molecule": "CCCN(CCC)c1nc(-c2ccc(Cl)cc2)nc2c1CCC2", "result_units": "°C", "melting point": 114}
{"molecule": "Clc1cc(Cl)cc(-c2nc3c(c(N4CCCCC4)n2)CCC3)c1", "result_units": "°C", "melting point": 147}
{"molecule": "Cc1ccc(-c2nc3c(c(NC4CCCCC4)n2)CCC3)cc1", "result_units": "°C", "melting point": 163}
{"molecule": "CCCN(CCC)c1nc(-c2cc(Cl)cc(Cl)c2)nc2c1CCC2", "result_units": "°C", "melting point": 120}
{"molecule": "Clc1cccc(-c2nc3c(c(N4CCSCC4)n2)CCC3)c1", "result_units": "°C", "melting point": 134}
{"molecule": "OCCNc1nc(-c2ccc(Cl)cc2)nc2c1CCC2", "result_units": "°C", "melting point": 160}
{"molecule": "Cc1ccc(-c2nc3c(c(N4CCCC4)n2)CCC3)cc1", "result_units": "°C", "melting point": 203}
{"molecule": "Clc1ccc(-c2nc3c(c(NCc4cccnc4)n2)CCC3)cc1", "result_units": "°C", "melting point": 209}
{"molecule": "COc1ccc(-c2nc3c(c(NCCCO)n2)CCC3)cc1", "result_units": "°C", "melting point": 165}
{"molecule": "CCCCNc1nc(-c2ccc(C)cc2)nc2c1CCC2", "result_units": "°C", "melting point": 133}
{"molecule": "COc1ccc(-c2nc3c(c(NC4CCCCC4)n2)CCC3)cc1", "result_units": "°C", "melting point": 138}
{"molecule": "Cc1ccc(-c2nc3c(c(N4CCSCC4)n2)CCC3)cc1", "result_units": "°C", "melting point": 160}
{"molecule": "Clc1cccc(-c2nc3c(c(N4CCOCC4)n2)CCC3)c1", "result_units": "°C", "melting point": 132}
